Taken from patent US20060106048A1.

Task for the reader: assign each of the following molecules its reported log10 of IC50.
target: recombinant human brain-derived phosphodiesterase 4D3 (Homo sapiens, UniProt Q08499); construct: GST; test: Assay of phosphodiesterase IV-inhibiting action (SPA, [3H]cAMP); conditions: recombinant human brain-derived phosphodiesterase 4D3, [3H]cAMP, 30 minutes at 30° C.; activity without compound = 100%; read-out: Phosphodiesterase 4D inhibiting action (IC50)
Sequence (Q08499 1-673 isoform Q08499-2): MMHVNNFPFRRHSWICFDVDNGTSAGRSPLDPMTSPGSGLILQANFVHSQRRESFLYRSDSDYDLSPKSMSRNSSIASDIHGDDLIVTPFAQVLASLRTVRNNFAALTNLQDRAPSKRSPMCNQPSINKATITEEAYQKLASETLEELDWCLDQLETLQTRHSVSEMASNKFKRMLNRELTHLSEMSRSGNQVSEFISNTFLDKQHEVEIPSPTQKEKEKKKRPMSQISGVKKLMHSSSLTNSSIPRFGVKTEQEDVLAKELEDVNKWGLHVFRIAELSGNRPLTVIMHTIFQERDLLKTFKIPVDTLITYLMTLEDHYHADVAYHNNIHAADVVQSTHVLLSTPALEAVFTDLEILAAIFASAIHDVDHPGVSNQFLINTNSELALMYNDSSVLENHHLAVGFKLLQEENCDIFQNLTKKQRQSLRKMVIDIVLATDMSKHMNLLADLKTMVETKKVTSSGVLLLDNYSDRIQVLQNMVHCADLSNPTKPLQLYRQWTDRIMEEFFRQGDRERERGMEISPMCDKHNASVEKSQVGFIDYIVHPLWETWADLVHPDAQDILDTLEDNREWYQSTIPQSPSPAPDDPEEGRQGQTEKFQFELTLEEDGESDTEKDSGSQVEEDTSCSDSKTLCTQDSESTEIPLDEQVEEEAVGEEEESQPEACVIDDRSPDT
Where a name gives a salt, the structure may show the parent alone.
Friendly reminder: values = log10 of IC50, unit nM.

Consider the worked cases shown below.
Entry CCOc1cc2c(c3c1OC(C)(C)C3)C(c1ccc(C(C)(C)C(=O)O)cc1)=NC(C)(C)C2 [Example 118, hydrochloride hydrate] under recombinant human brain-derived phosphodiesterase 4D3 (Homo sapiens, UniProt Q08499) had log10 of IC50 of 1.06

Kindly note: recombinant human brain-derived phosphodiesterase 4D3 (Homo sapiens, UniProt Q08499), "CCNc1cc(C2=NC(C)(C)Cc3cc(OCC)c4c(c32)CC(C)(C)O4)ccc1C(=O)O" , log10 of IC50 value reported: 0.92

Lab entry: recombinant human brain-derived phosphodiesterase 4D3 (Homo sapiens, UniProt Q08499) assay, molecule "CCOc1cc2c(c3c1OC(C)(C)C3)C(c1ccc(C(=O)NC)c(NC(=O)c3ccccc3)c1)=NC(C)(C)C2" , log10 of IC50 = 0.21

Item "CCOc1cc2c(c3c1OC(C)(C)C3)C(c1ccc(C(=O)O)c(NCc3ccccc3)c1)=NC(C)(C)C2" was tested on recombinant human brain-derived phosphodiesterase 4D3 (Homo sapiens, UniProt Q08499); the reported log10 of IC50 is -0.25

I looked up "CCOc1cc2c(c3c1OC(C)(C)C3)C(c1ccc(C(=O)OC)c(NC(=O)c3ccccn3)c1)=NC(C)(C)C2" and its log10 of IC50 for recombinant human brain-derived phosphodiesterase 4D3 (Homo sapiens, UniProt Q08499) was 0.28

Fill in: recombinant human brain-derived phosphodiesterase 4D3 (Homo sapiens, UniProt Q08499) log10 of IC50 for "CCOc1cc2c(c3c1OC(C)(C)C3)C(c1ccc(C(N)=O)c(NC(=O)c3ccccn3)c1)=NC(C)(C)C2" = -0.12

Record "CCOc1cc2c(c3c1OC(C)(C)C3)C(c1ccc(C(=O)O)c(NC(=O)c3ccc4ccccc4n3)c1)=NC(C)(C)C2" ; system recombinant human brain-derived phosphodiesterase 4D3 (Homo sapiens, UniProt Q08499); log10 of IC50 = -0.12

Field log10 of IC50 (system: recombinant human brain-derived phosphodiesterase 4D3 (Homo sapiens, UniProt Q08499)) for entry "CCOc1cc2c(c3c1OC(C)(C)C3)C(c1ccc(C(=O)OC)c(NC(C)=O)c1)=NC(C)(C)C2" = 0.60

# lookup: "CCOc1cc2c(c3c1OC(C)(C)C3)C(c1ccc(CC(=O)O)c(NC(=O)c3ccccn3)c1)=NC(C)(C)C2" on recombinant human brain-derived phosphodiesterase 4D3 (Homo sapiens, UniProt Q08499), log10 of IC50 = -0.20

Item "CCOc1cc2c(c3c1OC(C)(C)C3)C(c1ccc(C#N)c(NCc3ccccc3)c1)=NC(C)(C)C2" was tested on recombinant human brain-derived phosphodiesterase 4D3 (Homo sapiens, UniProt Q08499); the reported log10 of IC50 is 0.23

# per-item lookup of log10 of IC50; items listed below
1. CCOc1cc2c(c3c1OC(C)(C)C3)C(c1ccc(/C=C/C(=O)O)c(OC)c1)=NC(C)(C)C2
2. CCOc1cc2c(c3c1OC(C)(C)C3)C(c1ccc(COCC(=O)O)cc1)=NC(C)(C)C2 [Example 95, hydrochloride]
3. CCOc1cc2c(c3c1OC(C)(C)C3)C(c1ccc(C(C)(C)C(N)=O)cc1)=NC(C)(C)C2
4. CCOc1cc2c(c3c1OC(C)(C)C3)C(c1ccc(COCC(=O)OC)cc1)=NC(C)(C)C2 [Example 94, hydrochloride]

# output
1: 0.74; 2: 1.04; 3: 0.54; 4: 0.51
